These measurements were taken from PubChem BioAssay (NCATS).

# assay: qHTS drug screen for cell cycle checkpoint inhibitors in PARPi-resistant BRCA-mutant ovarian cancer cell lines. (AID 1963452)
# measurement.parameters: PEO1/OlaR viability, CellTiter-Glo luminescence, 96 h; measured here: PEO4 Z-AUC; stronger effect = lower value
Would you mind telling me the reported Z-AUC of each entry?
Form: value (number only, do not type unit).

Can you share its Z-AUC? I mean this molecule: COc1cc([C@H]2Oc3cc([C@H]4Oc5cc(O)cc(O)c5C(=O)[C@@H]4O)ccc3O[C@@H]2CO)ccc1O
0.956

Also need CC(=O)O[C@]1(C(C)=O)CC[C@H]2[C@@H]3C=C(C)C4=CC(=O)CC[C@]4(C)[C@H]3CC[C@@]21C , thanks.
0.47

Also need O=C1[C@H](CC[C@H](O)c2ccc(F)cc2)[C@@H](c2ccc(O)cc2)N1c1ccc(F)cc1 , thanks.
1.08

====

# test.target: Protein phosphatase 1D (Homo sapiens)
# assay: RapidFire Mass Spectrometry qHTS Assay for Modulators of WT P53-Induced Phosphatase 1 (WIP1) (AID 1347424);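 also: amount of dephosphorylated VEPPL-S-QETFS peptide product formed by WIP1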
# measurement.parameters: WIP1 dephosphorylation of phosphopeptide, RapidFire MS; series mostly up to 63 µM
Results filed as inconclusive are left out. Active and inactive are the calls of the source. Calls follow the shape of the dose curve; as a rule, active = well fitted inhibition curve with a large enough effect; inconclusive = small, poorly fitted or top-dose-only effect; inactive = no such curve, though single readings can be large or run the other way.
Classes to choose from: active, inactive

Hi team, can someone confirm the assay call for O=C(Nc1ccc([N+](=O)[O-])cc1)Nc1ccc([N+](=O)[O-])cc1 ?
inactive

Also need CCc1nn(CCCN2CCN(c3cccc(Cl)c3)CC2)c(=O)n1CCOc1ccccc1 , thanks.
inactive

Also need CCCCCCCCCCCCSCCOCCO , thanks.
inactive

Also need Clc1cccc(C(c2ccc3nc[nH]c3c2)n2ccnc2)c1 (stereo unspecified) , thanks.
inactive

Also need Cc1ccc(O)c([C@H](CCN(C(C)C)C(C)C)c2ccccc2)c1 , thanks.
inactive

Also need CCN(CC)CCOC(=O)C1(c2ccccc2)CCCC1 , thanks.
inactive

Also need CC(CNC1CCCCC1)OC(=O)c1ccccc1 (stereo unspecified) , thanks.
inactive

Also need CN1CCC(OC(c2ccccc2)c2ccccc2)CC1 , thanks.
inactive

Also need O=C(CCN1CCN2CCCC2C1)N1c2ccccc2Sc2ccc(Cl)cc21 (stereo unspecified) , thanks.
inactive

Also need COc1cc(NS(=O)(=O)c2ccc(N)cc2)ncn1 , thanks.
inactive

Also need CCOC(=O)Nc1ccc2c(c1)N(C(=O)CCN1CCOCC1)c1ccccc1S2 , thanks.
inactive

Also need COc1cc(N)c(Cl)cc1C(=O)NC1CCN(Cc2ccccc2)CC1 , thanks.
inactive

Also need CCNC(=O)/C=C/c1cccc(Br)c1 , thanks.
inactive

Also need CN(Cc1ccc(C(C)(C)C)cc1)Cc1cccc2ccccc12 , thanks.
inactive

Also need Cc1cc(CC(=O)O)c(C)n1-c1ccc(Cl)cc1 , thanks.
inactive

Also need CCCN(CCc1cccs1)[C@H]1CCc2c(O)cccc2C1 , thanks.
inactive

Also need N[C@H](C(=O)O)[C@@H](O)c1ccc(O)c(O)c1 , thanks.
inactive

Also need Nc1nc(Cl)nc2c1ncn2[C@@H]1O[C@H](CO)[C@@H](O)[C@@H]1F , thanks.
inactive

Also need C[C@@]12C(=O)OC(=O)[C@]1(C)C1CCC2O1 , thanks.
inactive

Also need COc1cc(C)nc(-n2nc(C)cc2OC)n1 , thanks.
inactive

Also need CCCCC(CC)COC(=O)c1ccc(N(C)C)cc1 (stereo unspecified) , thanks.
inactive

Also need Oc1c(Cl)cc(Cl)c(Cl)c1Cc1c(O)c(Cl)cc(Cl)c1Cl , thanks.
active

Also need Cc1ccc(-c2ncc(Cl)cc2-c2ccc(S(C)(=O)=O)cc2)cn1 , thanks.
inactive

Also need CC(=O)NO , thanks.
inactive

Also need CC(=O)Oc1ccc(C)cc1 , thanks.
inactive

Also need CCN(CC)CCOc1ccccc1C(=O)CCc1ccccc1 , thanks.
inactive

Also need NC(=S)N/N=C/c1cccnc1 , thanks.
inactive

Also need Cc1ccc2c(Br)cc(Br)c(O)c2n1 , thanks.
inactive

Also need CCO[C@@H]1O[C@H](C(COCc2ccccc2)OCc2ccccc2)[C@H](OCc2ccccc2)[C@H]1O (stereo partly specified) , thanks.
inactive

Also need C#C[C@]1(O)CC[C@H]2[C@@H]3[C@H](C)CC4=C(CCC(=O)C4)[C@H]3CC[C@@]21C , thanks.
inactive

Also need COc1cc([C@H]2Oc3cc([C@H]4Oc5cc(O)cc(O)c5C(=O)[C@@H]4O)ccc3O[C@@H]2CO)ccc1O , thanks.
inactive

Also need Cn1c(=O)c2[nH]c(Br)nc2n(C)c1=O , thanks.
inactive

Also need COc1ccc(C(=O)c2ccccc2O)c(O)c1 , thanks.
inactive

Also need Cc1cc(C)cc(OCC2CNC(=O)O2)c1 (stereo unspecified) , thanks.
inactive

Also need CC[C@]12CCCN3CCc4c(n(c5ccccc45)C(=O)C1)[C@@H]32 , thanks.
inactive

Also need CCC(C(=O)OCCOCCN(CC)CC)c1ccccc1 (stereo unspecified) , thanks.
inactive

Also need OCCOCCN1CCN(C2=Nc3ccccc3Sc3ccccc32)CC1 , thanks.
inactive

Also need Cc1cccc(C)c1NC(=O)CN1CCCC1 , thanks.
inactive

Also need O=C(CN1CCN(Cc2ccc3c(c2)OCO3)CC1)N1c2ccccc2Sc2ccccc21 , thanks.
inactive

Also need CC(C)CCCC(C)N (stereo unspecified) , thanks.
inactive

Also need Cc1cccc(C)c1NC(=O)c1ccccc1C(=O)O , thanks.
inactive

====

Would you mind telling me the reported max response of each entry?
# assay: qHTS Assay for Lipid Storage Modulators (AID 1519)
# measurement.parameters: Drosophila S3 cells, BODIPY lipid droplet/cell ratio, laser cytometry; measured here: lipid channel max response; cells loaded with oleic acid
Results filed as inconclusive are left out.
Reply with just the number (in %).

Can you share its max response? I mean this compound: COc1cc(C)nc(-n2nc(C)cc2OC)n1
-3.43

Also need CCN(CC)CCOC(=O)C(Cc1cccc2ccccc12)CC1CCCO1 (centres undefined) , thanks.
24.7

Also need CN1CCC[C@@H]1CCO[C@](C)(c1ccccc1)c1ccc(Cl)cc1 , thanks.
-13.1

Also need Cc1ncc(CO)c(C=O)c1O , thanks.
-15.3

Also need CCN1CCCC(OC(=O)C(c2ccccc2)c2ccccc2)C1 (centres undefined) , thanks.
-14.3

Also need N=C(N)N1CCc2ccccc2C1 , thanks.
-6.4

Also need COc1ccc(CN(CCN(C)C)c2ncccn2)cc1 , thanks.
17.3

Also need CCCc1ncc(C[n+]2ccccc2C)c(N)n1 , thanks.
0

Also need CC(C(=O)O)c1cccc(Oc2ccccc2)c1 (centres undefined) , thanks.
29.6

Also need CN(C)CCOC(=O)C(c1ccccc1)C1(O)CCCC1 (centres undefined) , thanks.
27.5

Also need Nc1ccc(S(=O)(=O)Nc2cnc3ccccc3n2)cc1 , thanks.
-10.6

Also need CN1CCC(OC(c2ccccc2)c2ccccc2)CC1 , thanks.
-25.4

Also need CCOC(=O)c1ccc(N)cc1 , thanks.
-0.169

Also need OCCOCCN1CCN(C2=Nc3ccccc3Sc3ccccc32)CC1 , thanks.
19.3

====

# assay: qHTS Assay for Lipid Storage Modulators (AID 1519); as to activity change, negative = inhibition: % is scaled to controls: 0 for no effect and ±100 for the full control effect
# measurement.parameters: Drosophila S3 cells, BODIPY lipid droplet/cell ratio, laser cytometry; at 57.5 µM (top of the series); cells loaded with oleic acid
Records with an inconclusive call do not appear.
measurement.label: activity change, negative = inhibition (%)
Reply with just the number (in %).

Can you share its activity change, negative = inhibition? I mean this compound: Oc1c(Cl)cc(Cl)c(Cl)c1Cc1c(O)c(Cl)cc(Cl)c1Cl
7.05

Also need O=C(O)c1ccc(S(=O)(=O)N(Cl)Cl)cc1 , thanks.
9.84

Also need Cc1ncc(CO)c(C=O)c1O , thanks.
-6.06

Also need COc1ccc(C(=O)c2ccccc2)c(O)c1 , thanks.
9.05

====

# assay: qHTS of pediatric cancer cell lines to identify multiple opportunities for drug repurposing: Primary screen for LAN-5 cells (AID 1347100)
# measurement.parameters: LAN-5 neuroblastoma viability, CellTiter-Glo luminescence, 48 h; series mostly up to 46 µM
Records with an inconclusive call do not appear. The source made the active and inactive calls. The call rests on the fitted dose curve; in most records, active means well fitted cell-killing curve with a large enough effect; inconclusive means small, poorly fitted or top-dose-only effect; inactive means no such curve, though single readings can be large or run the other way.
Classes to choose from: active, inactive

Hi team, can someone confirm the assay call for Cc1ccc(S(=O)(=O)NC(=O)NC2CCCC2)cc1 ?
inactive

Also need COc1cc(C(=S)N2CCOCC2)ccc1O , thanks.
inactive

Also need CC(C)(Cc1c[nH]c2ccccc12)NCC(O)COc1ccccc1C#N (stereo not given) , thanks.
inactive

Also need O=C(Nc1cccc(C2=NCCN2)c1)Nc1cccc(C2=NCCN2)c1 , thanks.
inactive

Also need C[N+]1(C)CCC(=C(c2ccccc2)c2ccccc2)CC1 , thanks.
inactive

Also need Cc1ccccc1OCC(O)CO (stereo not given) , thanks.
inactive

Also need NC(N)=NN=C(/C=C/c1ccc([N+](=O)[O-])o1)/C=C/c1ccc([N+](=O)[O-])o1 , thanks.
active

Also need COc1ccc(/C=N/NC(=O)c2ccncc2)cc1OC , thanks.
inactive

Also need C[C@@H](O)[C@H]1C(=O)N2C(C(=O)O)=C(S[C@@H]3CN[C@H](CNS(N)(=O)=O)C3)[C@H](C)[C@H]12 , thanks.
inactive

Also need CCc1ccc(C(=O)C(C)CN2CCCCC2)cc1 (stereo not given) , thanks.
inactive
